Hey, just so you know, these numbers are from ChEMBL document CHEMBL4229348.

Below, each of the substances is paired with its reported Retention_time value.
# experimental-protocol: Retention time of the compound at 0.4 mM by HPLC analysis
# Format: physicochemical
# test-conditions: 400 µM
Write the numeric value and append its unit.

[[record]]
substance = "H-KLKLKLKL-NH2"
result_value = "14.4 min"


Query: Please look up its Retention_time: `H-IRIRIRIR-NH2`
Response: 13.9 min

Query: Look up Retention_time for this substance: `H-AKAKAKAK-NH2`
Response: 1.9 min

Query: Record request: Retention_time value, item `H-LKLKLKLKLK-NH2`
Response: 14.5 min

Query: Form field: reported Retention_time of `H-IKIKIAIK-NH2`
Response: 13.8 min

Query: May I ask what Retention_time has been recorded for `H-IKIKIKIK-OH` ?
Response: 13.5 min

Query: # Retention_time lookup, item `H-IIKKIIKK-NH2`
Response: 11.6 min

Query: Which Retention_time is reported for this substance? `H-KKIIKKII-NH2`
Response: 12.6 min

Query: Retention_time for `H-KKKKKKKK-NH2` ?
Response: 2 min

Query: Reported Retention_time for `Ac-IKIKIKIK-NH2` : what is it?
Response: 14.3 min
